compounds and their reported IC50
# Target Of Assay: c-KIT D816H kinase (Seq ID no. 3) (Homo sapiens, UniProt P10721, D816H)
# Construct: GST (N); TEV cleavage site (N)
# Sequence (P10721 544-976 D816H): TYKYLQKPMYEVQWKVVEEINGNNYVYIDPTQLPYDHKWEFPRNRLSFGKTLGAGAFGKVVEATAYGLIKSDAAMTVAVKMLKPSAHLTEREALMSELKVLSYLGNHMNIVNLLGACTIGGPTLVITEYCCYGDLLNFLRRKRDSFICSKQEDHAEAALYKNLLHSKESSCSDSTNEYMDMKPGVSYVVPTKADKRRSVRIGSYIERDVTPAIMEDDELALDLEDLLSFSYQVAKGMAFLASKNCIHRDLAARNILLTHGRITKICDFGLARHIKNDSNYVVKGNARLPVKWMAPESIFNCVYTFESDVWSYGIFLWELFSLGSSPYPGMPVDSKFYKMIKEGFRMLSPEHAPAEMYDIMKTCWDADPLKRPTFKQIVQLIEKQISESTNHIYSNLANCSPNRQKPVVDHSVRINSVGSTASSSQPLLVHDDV
# Assay Text: c-KIT D816H Kinase Assay
# Condition Parameters: enzymatic assay, ATP 200 μM

Worked examples follow.
CCn1c(=O)c(-c2cc(NC(=O)Nc3ccc(F)c(CN4CCCC4)c3)c(F)cc2Cl)cc2cnc(NC)cc21 [Example 97] ... 10 to 100 nM
CCn1c(=O)c(-c2cc(NC(=O)Nc3ccccc3)c(F)cc2Br)cc2cnc(NCCS(C)(=O)=O)cc21 [Example 52] ... 100 to 1000 nM

API: the following record is the query input.
Observed IC50 on c-KIT D816H kinase (Seq ID no. 3) (Homo sapiens, UniProt P10721, D816H) for Cc1cc(F)c(NC(=O)Nc2ccccc2)cc1-c1cc2cnc(NC(=O)N3CCC3)cc2n(C(C)C)c1=O [Example 109] , please.
10 to 100 nM

----------
# Target Of Assay: Phospho-KIT (Tyr719) in GIST48 cells (Homo sapiens, UniProt P10721)
# Sequence (P10721 whole entry V560D/D820A, form open): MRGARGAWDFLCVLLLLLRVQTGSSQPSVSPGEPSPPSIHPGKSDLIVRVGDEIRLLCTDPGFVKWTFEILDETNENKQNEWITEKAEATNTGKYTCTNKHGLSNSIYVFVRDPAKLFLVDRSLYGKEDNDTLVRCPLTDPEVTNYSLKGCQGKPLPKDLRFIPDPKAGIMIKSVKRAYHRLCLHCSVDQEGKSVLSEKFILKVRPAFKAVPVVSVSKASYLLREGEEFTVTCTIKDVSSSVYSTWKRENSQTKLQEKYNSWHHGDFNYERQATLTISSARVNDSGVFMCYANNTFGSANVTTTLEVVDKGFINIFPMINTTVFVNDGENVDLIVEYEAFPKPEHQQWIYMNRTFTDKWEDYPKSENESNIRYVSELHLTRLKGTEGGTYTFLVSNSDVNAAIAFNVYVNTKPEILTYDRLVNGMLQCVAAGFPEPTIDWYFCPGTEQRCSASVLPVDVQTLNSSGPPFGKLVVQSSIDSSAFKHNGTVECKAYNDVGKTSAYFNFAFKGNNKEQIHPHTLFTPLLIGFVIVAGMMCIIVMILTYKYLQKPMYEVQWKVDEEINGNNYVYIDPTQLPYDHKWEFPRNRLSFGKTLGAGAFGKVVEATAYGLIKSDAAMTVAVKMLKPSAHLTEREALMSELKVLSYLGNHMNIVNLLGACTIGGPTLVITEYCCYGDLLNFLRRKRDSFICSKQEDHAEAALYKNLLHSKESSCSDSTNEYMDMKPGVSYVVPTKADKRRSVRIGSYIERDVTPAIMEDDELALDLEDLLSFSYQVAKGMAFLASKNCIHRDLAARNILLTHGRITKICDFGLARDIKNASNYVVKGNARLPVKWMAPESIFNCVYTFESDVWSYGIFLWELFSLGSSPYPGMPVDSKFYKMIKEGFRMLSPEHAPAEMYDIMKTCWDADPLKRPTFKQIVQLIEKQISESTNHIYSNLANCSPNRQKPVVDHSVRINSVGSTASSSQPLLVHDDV
# Assay Text: GIST48 KIT Western Blot
# Condition Parameters: 4 hours, read-out: pKIT suppression by western blot analysi GIST48
pIC50: −log10 of the molar value.
In this section, each of the compounds is paired with its reported pIC50.

Consider the reported pIC50 for these compounds:
CCn1c(=O)c(-c2cc(NC(=O)Nc3cccc4ccccc34)c(F)cc2Cl)cc2cnc(NC)cc21 ... > 8.00
CCn1c(=O)c(-c2cc(NC(=O)Nc3cc(F)cc(CN4CCN(C)CC4)c3)c(F)cc2Cl)cc2cnc(NC)cc21 ... 7.00 to 8.00
CNc1cc2c(cn1)cc(-c1cc(NC(=O)Nc3cccc(F)c3)c(F)cc1Cl)c(=O)n2C(C)C ... 7.00 to 8.00

What value of pIC50 has been recorded for this entry: Cc1cc(F)c(NC(=O)Nc2ccccc2)cc1-c1cc2cnc(NC(=O)N3CCC3)cc2n(C(C)C)c1=O
7.00 to 8.00

Which pIC50 reading was recorded for the compound CCn1c(=O)c(-c2cc(NC(=O)Nc3cccc(F)c3)c(F)cc2Cl)cc2cnc(NC)cc21 ?
7.00 to 8.00

Returns the measured pIC50 for the input compound. Input: CCn1c(=O)c(-c2cc(NC(=O)Nc3cc(F)cc(F)c3)c(F)cc2F)cc2cnc(NC)cc21
6.00 to 7.00

----------
List of IC50 values.
# Target Of Assay: c-KIT VVDV kinase (V559 and V560 deleted and D816V mutation, Seq ID no. 5) (Homo sapiens, UniProt P10721, D816V/DEL559-560)
# Construct: This construct contains residues T544-V976 of cKit (except for the D816V mutation and the deletion of residues V559 and V560); GST (N); TEV cleavage site (N); purchased deCODE Biostructures
# Sequence (P10721 with tags, fused parts or gaps DEL559-560/D816V): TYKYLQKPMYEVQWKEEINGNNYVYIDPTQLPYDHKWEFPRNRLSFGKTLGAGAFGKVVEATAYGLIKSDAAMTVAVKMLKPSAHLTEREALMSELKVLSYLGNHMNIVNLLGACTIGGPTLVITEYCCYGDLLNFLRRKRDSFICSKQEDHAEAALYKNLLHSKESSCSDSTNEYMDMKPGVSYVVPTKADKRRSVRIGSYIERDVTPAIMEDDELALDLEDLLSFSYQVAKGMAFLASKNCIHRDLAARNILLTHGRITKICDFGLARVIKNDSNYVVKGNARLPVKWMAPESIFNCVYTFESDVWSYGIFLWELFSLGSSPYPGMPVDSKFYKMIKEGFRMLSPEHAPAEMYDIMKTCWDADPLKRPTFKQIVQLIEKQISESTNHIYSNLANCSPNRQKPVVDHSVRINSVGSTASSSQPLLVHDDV
# Assay Text: cKIT-VVDV Kinase Assay
# Format: biochemical
# Condition Parameters: enzymatic assay, ATP 200 uM

CCn1c(=O)c(-c2cc(NC(=O)Nc3cccc(Cl)c3)c(F)cc2F)cc2cnc(NC)cc21 [Example 17] ... 100 to 1000 nM
CCn1c(=O)c(-c2cc(NC(=O)Nc3ccccc3)c(F)cc2Br)cc2cnc(NC(C)=O)cc21 [Example 53] ... < 10 nM

// lookup IC50 for CCn1c(=O)c(-c2cc(NC(=O)Nc3ccccc3)c(F)cc2Cl)cc2cnc(N)cc21 [Example 21]
< 10 nM

Query: IC50; subject: CCn1c(=O)c(-c2cc(NC(=O)Nc3cccc(CN4CCN(C)CC4)c3)c(F)cc2Cl)cc2cnc(NC)cc21 [Example 79]
> 1000 nM

----------
# System: GIST T1 cells
# Assay Text: GIST T1 Cell Proliferation Assay
# Format: cell-based
# Condition Parameters: Homo sapiens, GISTT1, 72 h, resazurin, 68 hours + 4 hours
Measured Endpoint: IC50

Which IC50 value is on record for CCn1c(=O)c(-c2cc(NC(=O)Nc3ccccc3)c(F)cc2Cl)cc2cnc(NCCCN3CCOCC3)cc21 [Example 92] ?
≤ 0.01 µM

----------
# Target Of Assay: c-KIT kinase (Seq ID no. 1) (Homo sapiens, UniProt P10721)
# Construct: GST (N); TEV cleavage site (N)
# Sequence (P10721 with tags, fused parts or gaps): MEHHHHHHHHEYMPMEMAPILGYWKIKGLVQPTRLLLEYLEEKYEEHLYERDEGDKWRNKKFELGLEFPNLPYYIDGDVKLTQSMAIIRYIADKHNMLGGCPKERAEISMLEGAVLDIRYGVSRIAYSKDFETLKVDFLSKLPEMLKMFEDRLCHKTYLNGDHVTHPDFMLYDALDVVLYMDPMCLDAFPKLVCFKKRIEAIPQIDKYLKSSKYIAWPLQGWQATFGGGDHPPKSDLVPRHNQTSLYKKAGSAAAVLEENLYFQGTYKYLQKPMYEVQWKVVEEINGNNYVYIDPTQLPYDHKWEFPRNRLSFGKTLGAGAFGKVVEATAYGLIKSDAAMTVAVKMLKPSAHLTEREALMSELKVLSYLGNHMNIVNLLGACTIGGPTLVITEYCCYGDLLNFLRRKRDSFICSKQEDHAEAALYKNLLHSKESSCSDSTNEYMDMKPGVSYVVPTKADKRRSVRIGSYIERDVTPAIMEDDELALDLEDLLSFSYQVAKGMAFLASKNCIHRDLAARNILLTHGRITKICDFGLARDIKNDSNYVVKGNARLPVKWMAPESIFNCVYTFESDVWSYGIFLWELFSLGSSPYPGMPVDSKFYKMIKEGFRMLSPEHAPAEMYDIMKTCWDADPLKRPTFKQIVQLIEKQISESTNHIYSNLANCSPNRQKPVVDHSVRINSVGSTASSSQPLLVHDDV
# Assay Text: c-KIT Kinase Assay (pyruvate kinase/lactate dehydrogenase coupled)
# Condition Parameters: enzymatic assay, ATP 200 μM; read-out: KIT (wt)
Measured Endpoint: IC50

CCn1c(=O)c(-c2cc(NC(=O)Nc3ccc(F)c(CN(C)C)c3)c(F)cc2Cl)cc2cnc(NC)cc21 ... < 10 nM
CCn1c(=O)c(-c2cc(NC(=O)Nc3ccc(F)c(CN4CCOCC4)c3)c(F)cc2Cl)cc2cnc(NC=O)cc21 ... 10 to 100 nM
CCn1c(=O)c(-c2cc(NC(=O)Nc3ccccc3)c(F)cc2Cl)cc2cnc(NCCCN3CCOCC3)cc21 ... < 10 nM
CC(=O)Nc1cc2c(cn1)cc(-c1cc(NC(=O)Nc3cccc(F)c3)c(F)cc1Cl)c(=O)n2C(C)C ... < 10 nM
CCn1c(=O)c(-c2cc(NC(=O)Nc3ccccc3)c(F)cc2Cl)cc2cnc(NC3CCOC3)cc21 (stereo not shown) ... < 10 nM
CCn1c(=O)c(-c2cc(NC(=O)Nc3ccccc3)c(F)cc2Cl)cc2cnc(NC(=O)[C@@H]3CCCN3)cc21 ... 10 to 100 nM
CCn1c(=O)c(-c2cc(NC(=O)Nc3cccc(CN4CCN(C)CC4)c3)c(F)cc2Cl)cc2cnc(NC)cc21 ... < 10 nM
CCn1c(=O)c(-c2cc(NC(=O)Nc3ccccc3)c(F)cc2Br)cc2cnc(NC(C)=O)cc21 ... < 10 nM

Param item = CCn1c(=O)c(-c2cc(NC(=O)Nc3ccccc3)c(F)cc2C)cc2cnc(Nc3cnn(C)c3)cc21 ; retrieve measured IC50.
< 10 nM

For the compound CCn1c(=O)c(-c2cc(NC(=O)Nc3ccccc3)c(F)cc2Cl)cc2cnc(NC3CCOCC3)cc21 , what IC50 is on record?
10 to 100 nM

Dear colleague, I am looking for the recorded IC50 of the following compound: Cc1cc(F)c(NC(=O)Nc2ccccc2)cc1-c1cc2cnc(NC(=O)N3CCC3)cc2n(C(C)C)c1=O
10 to 100 nM

IC50 for CCn1c(=O)c(-c2cc(NC(=O)Nc3ccccc3)c(F)cc2F)cc2cnc(NC(=O)CC#N)cc21 ?
< 10 nM

I am curious: what IC50 value has been reported for CCn1c(=O)c(-c2cc(NC(=O)Nc3ccccc3)c(F)cc2Cl)cc2cnc(NCCS(C)(=O)=O)cc21 ?
10 to 100 nM

What IC50 value was documented for this compound, CCn1c(=O)c(-c2cc(NC(=O)Nc3ccccc3)c(F)cc2Cl)cc2cnc(NC3CCN(C)CC3)cc21 ?
10 to 100 nM

Can you share its IC50? I mean this compound: CCn1c(=O)c(-c2cc(NC(=O)Nc3ccc(F)c(CN4CCCC4)c3)c(F)cc2Cl)cc2cnc(NC)cc21
< 10 nM

I have this compound here, CCn1c(=O)c(-c2cc(NC(=O)Nc3ccccc3)c(F)cc2C)cc2cnc(Nc3ccc(C)nc3)cc21 , and I need its recorded IC50.
10 to 100 nM

I have this compound here, CCn1c(=O)c(-c2cc(NC(=O)Nc3ccccc3)c(F)cc2C#N)cc2cnc(NC)cc21 , and I need its recorded IC50.
< 10 nM

# get_value(readout='IC50', item= CCn1c(=O)c(-c2cc(NC(=O)Nc3ccccc3)c(F)cc2Cl)cc2cnc(NC3CCN(C)C3)cc21 (stereo not shown) )
10 to 100 nM

Returns the measured IC50 for the input compound. Input: CCn1c(=O)c(-c2cc(NC(=O)Nc3ccccc3)c(F)cc2F)cc2cnc(NC(C)=O)cc21
< 10 nM

----------
# Target Of Assay: Phospho-KIT (Tyr719) in GIST430 cells (Homo sapiens, UniProt P10721)
# Sequence (P10721 with tags, fused parts or gaps DEL560-576/V654A, form open): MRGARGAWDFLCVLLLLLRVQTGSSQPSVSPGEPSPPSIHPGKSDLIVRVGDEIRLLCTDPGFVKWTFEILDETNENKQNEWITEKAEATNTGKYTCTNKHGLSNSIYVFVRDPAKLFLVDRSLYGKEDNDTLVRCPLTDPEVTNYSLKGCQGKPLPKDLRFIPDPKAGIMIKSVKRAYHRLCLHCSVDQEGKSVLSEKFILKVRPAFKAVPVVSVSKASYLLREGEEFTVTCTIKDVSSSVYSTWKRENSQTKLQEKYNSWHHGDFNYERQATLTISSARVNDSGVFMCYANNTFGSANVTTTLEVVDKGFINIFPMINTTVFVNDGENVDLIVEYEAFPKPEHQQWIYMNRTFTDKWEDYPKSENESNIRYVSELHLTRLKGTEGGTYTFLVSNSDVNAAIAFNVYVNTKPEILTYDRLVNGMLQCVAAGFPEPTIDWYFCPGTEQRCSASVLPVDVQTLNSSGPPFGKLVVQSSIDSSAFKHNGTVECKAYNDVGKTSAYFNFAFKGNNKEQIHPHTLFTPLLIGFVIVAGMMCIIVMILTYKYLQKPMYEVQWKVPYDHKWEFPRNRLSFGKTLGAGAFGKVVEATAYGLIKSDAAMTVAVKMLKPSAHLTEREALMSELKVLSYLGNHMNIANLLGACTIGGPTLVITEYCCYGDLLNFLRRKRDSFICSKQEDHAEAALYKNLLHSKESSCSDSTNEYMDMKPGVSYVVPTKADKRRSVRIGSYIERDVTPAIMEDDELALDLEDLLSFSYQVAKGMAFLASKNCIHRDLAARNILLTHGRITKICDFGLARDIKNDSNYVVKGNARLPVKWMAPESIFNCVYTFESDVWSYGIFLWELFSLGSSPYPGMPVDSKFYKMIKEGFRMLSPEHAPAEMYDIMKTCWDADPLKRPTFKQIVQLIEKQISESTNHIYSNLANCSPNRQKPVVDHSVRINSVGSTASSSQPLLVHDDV
# Assay Text: GIST430 KIT Western Blot
# Condition Parameters: 4 hours, read-out: pKIT suppression by western blot analysi GIST430
Catalogue of IC50 readings, one per entry.

Examples with answers:
CC(=O)Nc1cc2c(cn1)cc(-c1cc(NC(=O)Nc3ccccc3)c(F)cc1Cl)c(=O)n2C(C)C [Example 86] ... 10 to 100 nM
CCn1c(=O)c(-c2cc(NC(=O)Nc3ccccc3)c(F)cc2F)cc2cnc(NCCOC)cc21 [Example 36] ... 100 to 1000 nM
CCn1c(=O)c(-c2cc(NC(=O)Nc3cccc(Cl)c3)c(F)cc2F)cc2cnc(NC)cc21 [Example 17] ... 10 to 100 nM

Reported IC50, compound CCn1c(=O)c(-c2cc(NC(=O)Nc3ccccc3)c(F)cc2Cl)cc2cnc(NC(=O)N3CC(N(C)C)C3)cc21 [Example 102] : ____
10 to 100 nM
